tested on: PPARg:RXRa IVT, anti-PPARg (NR concentration 270 nM, RXRa partner concentration 90 nM); assay: PBM binding z-score (relative to random genomic background probes); higher = stronger binding; sequences stand for … in GC…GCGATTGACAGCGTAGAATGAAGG
Use PBM binding z-score to assign classes; range list: 0: < 4; 1: ≥ 4 and < 6; 2: ≥ 6

The following sequences have reported results that may help.
- polymer.sequence: "ATATGTAGGTTAGGGTCATTCCGAAAGTAGGGAA"
  assayed.system: "PPARg:RXRa IVT, anti-PPARg (NR concentration 270 nM, RXRa partner concentration 90 nM)"
  qualitative.label: 2
- polymer.sequence: "TCATATAGGTGAAAGGTGAAAGTCGGTGTGGTAA"
  assayed.system: "PPARg:RXRa IVT, anti-PPARg (NR concentration 270 nM, RXRa partner concentration 90 nM)"
  qualitative.label: 2
- polymer.sequence: "CCTACTGGGCCATTCAGAGGTCATTGATCATATG"
  assayed.system: "PPARg:RXRa IVT, anti-PPARg (NR concentration 270 nM, RXRa partner concentration 90 nM)"
  qualitative.label: 1
- polymer.sequence: "CTTTGTAGGTTAAGGGGGTCATTCAGTTTGAAAG"
  assayed.system: "PPARg:RXRa IVT, anti-PPARg (NR concentration 270 nM, RXRa partner concentration 90 nM)"
  qualitative.label: 2
- polymer.sequence: "CGAACTACGTCACCAGGACAGTGAAGAGGTTGGA"
  assayed.system: "PPARg:RXRa IVT, anti-PPARg (NR concentration 270 nM, RXRa partner concentration 90 nM)"
  qualitative.label: 0
- polymer.sequence: "CGAACTAGGCCACCAGGACAGTGAAGAGGTTGGA"
  assayed.system: "PPARg:RXRa IVT, anti-PPARg (NR concentration 270 nM, RXRa partner concentration 90 nM)"
  qualitative.label: 2

Categorize the following entry: `ATATGTAGGTTAGGGTCATGCAGAAAGTAGGGAA`
2

Categorize the following entry: `GCTCGGAGGACAAGGTCACAGCTTTGTCCGTAGA`
0

Categorize the following entry: `TCGGGTAGGTTACGGGGGCATTCAGGGATGAAGA`
2

Categorize the following entry: `CTATGTAGGTTAAGGTGGTCATTCAGTTTGAAAG`
2

Categorize the following entry: `CCTGCTAGGTCATGGTCAGGTAATCTACAGTATG`
0

Categorize the following entry: `GCTTACGGGTCAAAGGTTAAAGCATGAATAGAAT`
2

Categorize the following entry: `CTATTTAGGTTAAGGGGGTCATTCAGTTTGAAAG`
2

Categorize the following entry: `ATATGTAGGTCAGCTGGGGTCATTCAGACTAGGC`
2

Categorize the following entry: `CGTCTAAGGTCAAGGTCAGTGAAAGAGACTCGAA`
1

Categorize the following entry: `ATATGTAGGTTAGGGTCTTTCAGAAAGTAGGGAA`
2

Categorize the following entry: `CCTTACGGGTCACTTACAGGTTATAGCATTTGGA`
0

Categorize the following entry: `ATATGTAGGATAGGGTCATTCAGAAAGTAGGGAA`
0

Categorize the following entry: `CCGAGTAGGCTACGAGGGGGCATTCAGTGCGAAT`
0

Categorize the following entry: `CAAACTAGGTCACAGAGGTCAAAGTTCGTGCGTA`
2

Categorize the following entry: `CCTACTGGGTCATTCAGAGGTCATTGATCATATG`
2

Categorize the following entry: `CCGAGTAGGTTACGAGGGAGCATTCAGTGCGAAT`
0

Categorize the following entry: `CCTGCTAGGTCAATGGTCAGCTCAAGCAGCTCGC`
1

###

test system: VDR homodimer (NR concentration 270 nM); assay: PBM binding z-score (relative to random genomic background probes); higher = stronger binding; sequences stand for … in GC…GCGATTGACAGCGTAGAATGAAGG
Provide the reported PBM binding z-score of each item.
Answers are plain numbers.

Hi team, please reply with PBM binding z-score for each item in this list.
1. CGAACTAGGTCACCAGGACCGTGAAGAGGTTGGA
2. AATACAGGGTCCTCGTAGGCCAGAGTACGCACAG

1. 0.39
2. 0.487

Hi team, please reply with PBM binding z-score for each item in this list.
1. TCGAGTAGGTTTCGGGGGCATTCAGGGATGAAGA
2. CAAAGTAGGTCACGAAAGGTCAAAGTCGAATGAC
3. TTACCAAGGTTAAAGGTCGTTGATGCACGCCTTG
4. CCGAGTAGGTTACGAGGGGGCATTCGGTGCGAAT

3.56
3.31
2.29
3.61

###

test system: RARg:RXRa (NR concentration 270 nM, RXRa partner concentration 90 nM); test: PBM binding z-score (relative to random genomic background probes); higher = stronger binding; sequences stand for … in GC…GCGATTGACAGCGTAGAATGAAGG
readout.type: PBM binding z-score
One number for each entry.

- polymer.sequence: "ATATGTAGGTTAGGGTCATTGAGAAAGTAGGGAA"
  PBM binding z-score: 4.09
- polymer.sequence: "TTACGAAGGTGAAAGGTCGTTGATGCACGCCTTG"
  PBM binding z-score: 4.08

Could you now consider this next sequence?
Endpoint output: PBM binding z-score of `CGAACTAGGTCAAAGGACAGTGAGAGGCGACGTA` . Value?
3.93

###

tested on: PPARg:RXRa 270nM:90nM, anti-RXR (NR concentration 270 nM, RXRa partner concentration 90 nM); assay: PBM binding z-score (relative to random genomic background probes); higher = stronger binding; sequences stand for … in GC…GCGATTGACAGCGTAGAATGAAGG
Provide the reported PBM binding z-score of each item.

The following sequences have reported results that may help.
- polymer.sequence: "ATCGAAAGGTCGACGAGGAGAGTATACACCGTTT"
  measured.value: 2.76
- polymer.sequence: "CGAACAAGGTCAAAGGACAGTGAAAGGCGACGTA"
  measured.value: 6.93
- polymer.sequence: "CGTCCAAGGTCATAGGAGTTCAGTGAAGACAGAT"
  measured.value: 5.44

Could you now consider this next sequence?
Endpoint output: PBM binding z-score of `CGAAGTAGGTCACCAGGACAGTGAAGAGGTTGGA` . Value?
7.35

###

system: RARa homodimer (NR concentration 270 nM); test: PBM binding z-score (relative to random genomic background probes); higher = stronger binding; sequences stand for … in GC…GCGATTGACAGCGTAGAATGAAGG
Provide the reported PBM binding z-score of each item.
Numbers only.

- polymer.sequence: "ACTCGGGGGACAAAGGTCAGAGCTACGCCAGTGA"
  PBM binding z-score: 2.37
- polymer.sequence: "CGTCAAAGTTCATGGTAACGTAACAGAAAGCAGC"
  PBM binding z-score: 1.6
- polymer.sequence: "CCTACTGGGCCACGAAAGGTCCTTGATTCAGTGA"
  PBM binding z-score: -0.655
- polymer.sequence: "CCTTACGGGTCAAGGTAATAGCACGGGTGGTACG"
  PBM binding z-score: 0.734
- polymer.sequence: "CCTACTGGGCCAAAAATGTCATTGATGCCGATAA"
  PBM binding z-score: 0.0407
- polymer.sequence: "CGAACTAGGTCACAAGGACAGTGAAGAGGTTGGA"
  PBM binding z-score: 0.713

Hi team, please reply with PBM binding z-score for each item in this list.
1. GATTACGGGTCAAAGGTTATAGCATGAATAGAAT
2. CCTAGTTGGTCAGGTGGTCACACACCGGATATGA
3. CGTCAAAGTTCAAGTTAACGTAACAGAAAGCAGC
4. ACTATCAGGCCAAGGGTCACTCAAGATTAGTCCG
5. GATACAGAGTCAGCTAGAGGCCAGAGTATGGAAA
6. TCAAGTAGGTTACGGGGGCATTCAGGGATGAAGA

1: 1.34; 2: 1.18; 3: 2.01; 4: 1.45; 5: -0.438; 6: 1.26

Hi team, please reply with PBM binding z-score for each item in this list.
1. TCGAGTAGGTTACTGGGGCATTCAGGGATGAAGA
2. TCATATAGGTAATAGGTGAAAGTCGGTGTGGTAA
3. CCTAGCAGGCGAGGGTCACTCAAGCATTTCGCTT
4. CGAACCAGGTCACCAGGACAGTGAAGAGGTTGGA

1: -0.357; 2: 1.65; 3: -0.425; 4: 0.523

###

test system: LXRb:RXRa (NR concentration 270 nM, RXRa partner concentration 90 nM); experiment: PBM binding z-score (relative to random genomic background probes); higher = stronger binding; sequences stand for … in GC…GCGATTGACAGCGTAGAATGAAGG
Would you please tag the item TRUE when its PBM binding z-score is 2 or above, and FALSE when it is below?

- polymer.sequence: "ATATGTAGGTGAAGGGTCATTCAGGTTGGTTCGC"
  qualitative.label: "TRUE"

hey, is PBM binding z-score for this one >= 2? `CGTCAAAGTTCAAGGTTACGTAACAGAAAGCAGC`
TRUE

hey, is PBM binding z-score for this one >= 2? `TCGAGTAGGTTACGGAGGCATTCAGGGATGAAGA`
FALSE

hey, is PBM binding z-score for this one >= 2? `TCTTGTAGATCAAAGCTTAAGAAAGCCGAAGCCT`
FALSE

hey, is PBM binding z-score for this one >= 2? `CTATGTAGGTTATGGGGGTCATTCAGTTTGAAAG`
TRUE

hey, is PBM binding z-score for this one >= 2? `CCGAGTAGGTTACGAAGGGGCATTCAGTGCGAAT`
TRUE

hey, is PBM binding z-score for this one >= 2? `ATATGTAGGTTAGGGCCATTCAGAAAGTAGGGAA`
FALSE

hey, is PBM binding z-score for this one >= 2? `CTATGTAGGTTAAGTGGGTCATTCAGTTTGAAAG`
TRUE

hey, is PBM binding z-score for this one >= 2? `CGTCCAAGGTCATAAGAGGTCAGTGAAGACAGAT`
TRUE

hey, is PBM binding z-score for this one >= 2? `TAGCCTAGGTCATGCGGGCCAGTATAGTGTCGGC`
FALSE

hey, is PBM binding z-score for this one >= 2? `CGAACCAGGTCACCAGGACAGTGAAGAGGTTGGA`
TRUE

hey, is PBM binding z-score for this one >= 2? `CCGACTGGGCCATTCAGAGGTCATTGATCATATG`
TRUE
